test.details: Stability test of methyl donors in phosphate buffer (1H NMR, hydrolysis and phosphorolysis)
run.conditions: buffer, pH 8.4
Counter-ions that a name gives are not always drawn.
Recorded half-life, one value per entry.
Output spec: scalar in h, unitless text.

Below: 3 compounds and their reported half-life.
1) COS(=O)(=O)c1ccc(C)cc1 [MeOTs, methyl 4-toluenesulfonate]
26
2) COS(C)(=O)=O [MMSa, methyl methanesulfonate]
34
3) COS(=O)(=O)c1ccc([N+](=O)[O-])cc1 [MeONs, methyl 4-nitrobenzenesulfonate]
3

Let's switch to this compound now.
Per the record, COS(=O)(=O)OC [DMSa, dimethyl sulfate] has half-life of 0.97
